Items are presented alongside their recorded MCF7 pHER3 % inhibition.
target-desc: human HER3 endogenously expressed on human cancer cells (SK-Br-3, BT-474, MCF7) (human, UniProt P21860 20-1342)
test-method-notes: cell-based or functional assay
Kindly answer with a numeric value in %, unit omitted.

Below, each entry is followed by its recorded MCF7 pHER3 % inhibition result.
MOR12515 (antibody, human IgG1, lambda, V domains shown, Tested as IgG) VH: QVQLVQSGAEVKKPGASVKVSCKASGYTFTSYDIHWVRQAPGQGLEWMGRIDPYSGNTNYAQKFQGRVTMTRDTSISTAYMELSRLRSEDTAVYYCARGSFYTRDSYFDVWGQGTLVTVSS VL: DIALTQPASVSGSPGQSITISCTGTSSDVGTYNQVSWYQQHPGKAPKLMIYGVSKRPSGVSNRFSGSKSGNTASLTISGLQAEDEADYYCYSRDSPMDQVFGGGTKLTVLG: 71
MOR13657 (antibody, human IgG1, lambda, V domains shown, Tested as IgG) VH: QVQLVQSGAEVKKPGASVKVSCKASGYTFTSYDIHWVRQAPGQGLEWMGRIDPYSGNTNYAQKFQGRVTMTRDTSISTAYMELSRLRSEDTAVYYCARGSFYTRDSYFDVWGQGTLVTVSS VL: DIALTQPASVSGSPGQSITISCTGTSSDVGTYNQVSWYQQHPGKAPKLMIYGVSKRPSGVSNRFSGSKSGNTASLTISGLQAEDEADYYCSARDGWSEYVFGGGTKLTVLG: 75
MOR13661 (antibody, human IgG1, lambda, V domains shown) VH: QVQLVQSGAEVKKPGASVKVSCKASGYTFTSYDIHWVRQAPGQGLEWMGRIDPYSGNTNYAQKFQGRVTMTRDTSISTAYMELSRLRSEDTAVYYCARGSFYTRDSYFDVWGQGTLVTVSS VL: DIALTQPASVSGSPGQSITISCTGTSSDVGTYNQVSWYQQHPGKAPKLMIYGVSKRPSGVSNRFSGSKSGNTASLTISGLQAEDEADYYCGSRDSWAHVFGGGTKLTVLG: 55
MOR13668 (antibody, human IgG1, lambda, V domains shown) VH: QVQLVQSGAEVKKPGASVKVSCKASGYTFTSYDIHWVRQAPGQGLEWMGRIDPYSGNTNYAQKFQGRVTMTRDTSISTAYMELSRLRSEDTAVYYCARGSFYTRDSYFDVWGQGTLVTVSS VL: DIALTQPASVSGSPGQSITISCTGTSSDVGTYNQVSWYQQHPGKAPKLMIYGVSKRPSGVSNRFSGSKSGNTASLTISGLQAEDEADYYCQVWDSDQAMVFGGGTKLTVLG: 77

// moving on: another record for MCF7 pHER3 % inhibition
-- ask Answer with the recorded MCF7 pHER3 % inhibition of MOR13665 (antibody, human IgG1, lambda, V domains shown) VH: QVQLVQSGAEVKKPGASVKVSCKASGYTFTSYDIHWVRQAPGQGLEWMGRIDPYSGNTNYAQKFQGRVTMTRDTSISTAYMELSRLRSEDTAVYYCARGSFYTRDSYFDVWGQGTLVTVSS VL: DIALTQPASVSGSPGQSITISCTGTSSDVGTYNQVSWYQQHPGKAPKLMIYGVSKRPSGVSNRFSGSKSGNTASLTISGLQAEDEADYYCQSAAIATSVFGGGTKLTVLG only.
-- reply 62
